- system-tested: Nuclear receptor subfamily 5 group A member 2 (Homo sapiens) (UniProt O00482)
- Sequence (O00482 whole entry, looked up): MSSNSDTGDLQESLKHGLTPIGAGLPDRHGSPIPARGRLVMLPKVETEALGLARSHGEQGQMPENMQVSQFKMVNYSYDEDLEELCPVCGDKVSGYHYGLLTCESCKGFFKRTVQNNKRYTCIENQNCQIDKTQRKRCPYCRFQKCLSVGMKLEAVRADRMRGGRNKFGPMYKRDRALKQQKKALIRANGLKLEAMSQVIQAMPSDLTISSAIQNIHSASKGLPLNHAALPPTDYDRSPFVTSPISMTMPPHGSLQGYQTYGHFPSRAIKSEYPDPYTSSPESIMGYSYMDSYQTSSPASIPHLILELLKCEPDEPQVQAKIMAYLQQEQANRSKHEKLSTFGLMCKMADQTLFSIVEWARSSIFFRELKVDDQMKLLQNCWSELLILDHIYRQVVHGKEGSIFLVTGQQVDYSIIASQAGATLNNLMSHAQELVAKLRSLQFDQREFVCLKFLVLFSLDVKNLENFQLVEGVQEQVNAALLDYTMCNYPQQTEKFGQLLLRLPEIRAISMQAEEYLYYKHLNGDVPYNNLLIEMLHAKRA
- assay-text: LRH-1 (NR5A2) inverse agonists, retest, confirmation, cell-based, luminescence (AID 651613);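 note: HEK293T cells co-transfected with LRH-1 and StAR promoter luciferase reporter; 0% = vehicle wells and 100% = parental cells lacking receptor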
- condition-context: cell-based LRH-1 luciferase reporter, inverse agonism; at 3.6 µM
Active and inactive are the calls of the source. Cut-off read from the data, not from the text of the source: active = inhibition above about 42%; inactive = the rest.
The reply should be one of these categories: active, inactive

Answered cases to consult:
Ask | Can you look up the reported call for Cc1cccc(C(=O)Nc2sc3c(c2C(=O)O)CCCC3)c1 for me?
Reply | active

Ask | Can you look up the reported call for CCOCC(=O)Nc1cccc(C(=O)OCC)c1 for me?
Reply | inactive

Ask | Can you look up the reported call for Cc1cc(C)c2c(N)c3cccc(C)c3nc2n1 for me?
Reply | active

Ask | Can you look up the reported call for CC(=O)N(/N=C1\Sc2ccccc2C1=O)c1ccc(C)cc1C for me?
Reply | inactive

Ask | Can you look up the reported call for Nc1nc(N)nc(-c2cc(O)ccc2O)n1 for me?
Reply | active

Ask | Can you look up the reported call for CN(C)c1ccc(C(=O)OCC(=O)Nc2ccc(N3CCOCC3)cc2)cc1 for me?
Reply | active

Ask | Can you look up the reported call for COc1ccc(Br)cc1/C=C/C(=O)c1ccc(NC(C)=O)cc1 for me?
Reply | active

Ask | Can you look up the reported call for O=C(Nc1nc2ccc(F)cc2s1)c1ccc([N+](=O)[O-])o1 for me?
Reply | inactive

Further cases:
Ask | Can you look up the reported call for Cc1cccc(C)c1NC(=O)C(c1ccc(C(F)(F)F)cc1)n1c(=O)c(-c2cc3ccccc3[nH]2)nc2ccccc21 (stereo unspecified) for me?
Reply | inactive

Ask | Can you look up the reported call for NC(=O)c1ccc(N2CCN(S(=O)(=O)c3cccs3)CC2)c([N+](=O)[O-])c1 for me?
Reply | active

Ask | Can you look up the reported call for CCCCCCCCCn1ccc(=N)cc1 for me?
Reply | active

---

- assay-text: Gal4-VP16 luciferase reporter inhibitors, counter-screen for COUP-TFII antagonist project, cell-based, luminescence, HEK293 (AID 687007)
- condition-context: at 8.5 µM, active compounds read high
The list shows a part of the results. Activity calls are given as the source filed them. Rule as the data show it: active = inhibition above about 13%; inactive = the rest.
Listing: inhibition of selected compounds

Ask | Need inhibition of Cn1c(CN2CCOCC2)nc2cc(NC(=O)c3ccc(Cl)cc3)ccc21 , thanks.
Reply | -24.2% (inactive)

---

- Test system: transactivating tegument protein VP16 (Human herpesvirus 1)
- assay-text: VP16 transactivation reporter inhibitors, counter-screen for SRC2 inhibitor project, cell-based, luminescence, single concentration (AID 652007)
- condition-context: cell-based VP16 transactivation luciferase reporter, at 8.9 µM, active compounds read high
outcome-measure: inhibition (%)
# unit: % | format: bare number

Ask | Need inhibition of Cc1cccc2sc(N(CCCN(C)C)C(=O)CCS(=O)(=O)c3ccccc3)nc12 , thanks.
Reply | 12

Further cases:
Ask | Need inhibition of O=S(=O)(Nc1ccc2c(c1)OCCO2)c1cccc2nsnc12 , thanks.
Reply | -9.03

Ask | Need inhibition of O=C(COC(=O)c1ccc[nH]c1=O)Nc1ccc(N2CCCCC2)cc1 , thanks.
Reply | 45.1

Ask | Need inhibition of Cn1nc(C(F)(F)F)c(C#N)c1N1CCN(c2ccc(F)cc2)CC1 , thanks.
Reply | -6.8

Ask | Need inhibition of O=C(NCc1ccc(Cl)c(Cl)c1)c1cc(C2CCCCN2C(=O)CCc2ccccc2)on1 (stereo not given) , thanks.
Reply | -6.3

---

- system-tested: Nuclear receptor coactivator 2 (Homo sapiens) (UniProt Q15596)
- Sequence (Q15596 whole entry, looked up): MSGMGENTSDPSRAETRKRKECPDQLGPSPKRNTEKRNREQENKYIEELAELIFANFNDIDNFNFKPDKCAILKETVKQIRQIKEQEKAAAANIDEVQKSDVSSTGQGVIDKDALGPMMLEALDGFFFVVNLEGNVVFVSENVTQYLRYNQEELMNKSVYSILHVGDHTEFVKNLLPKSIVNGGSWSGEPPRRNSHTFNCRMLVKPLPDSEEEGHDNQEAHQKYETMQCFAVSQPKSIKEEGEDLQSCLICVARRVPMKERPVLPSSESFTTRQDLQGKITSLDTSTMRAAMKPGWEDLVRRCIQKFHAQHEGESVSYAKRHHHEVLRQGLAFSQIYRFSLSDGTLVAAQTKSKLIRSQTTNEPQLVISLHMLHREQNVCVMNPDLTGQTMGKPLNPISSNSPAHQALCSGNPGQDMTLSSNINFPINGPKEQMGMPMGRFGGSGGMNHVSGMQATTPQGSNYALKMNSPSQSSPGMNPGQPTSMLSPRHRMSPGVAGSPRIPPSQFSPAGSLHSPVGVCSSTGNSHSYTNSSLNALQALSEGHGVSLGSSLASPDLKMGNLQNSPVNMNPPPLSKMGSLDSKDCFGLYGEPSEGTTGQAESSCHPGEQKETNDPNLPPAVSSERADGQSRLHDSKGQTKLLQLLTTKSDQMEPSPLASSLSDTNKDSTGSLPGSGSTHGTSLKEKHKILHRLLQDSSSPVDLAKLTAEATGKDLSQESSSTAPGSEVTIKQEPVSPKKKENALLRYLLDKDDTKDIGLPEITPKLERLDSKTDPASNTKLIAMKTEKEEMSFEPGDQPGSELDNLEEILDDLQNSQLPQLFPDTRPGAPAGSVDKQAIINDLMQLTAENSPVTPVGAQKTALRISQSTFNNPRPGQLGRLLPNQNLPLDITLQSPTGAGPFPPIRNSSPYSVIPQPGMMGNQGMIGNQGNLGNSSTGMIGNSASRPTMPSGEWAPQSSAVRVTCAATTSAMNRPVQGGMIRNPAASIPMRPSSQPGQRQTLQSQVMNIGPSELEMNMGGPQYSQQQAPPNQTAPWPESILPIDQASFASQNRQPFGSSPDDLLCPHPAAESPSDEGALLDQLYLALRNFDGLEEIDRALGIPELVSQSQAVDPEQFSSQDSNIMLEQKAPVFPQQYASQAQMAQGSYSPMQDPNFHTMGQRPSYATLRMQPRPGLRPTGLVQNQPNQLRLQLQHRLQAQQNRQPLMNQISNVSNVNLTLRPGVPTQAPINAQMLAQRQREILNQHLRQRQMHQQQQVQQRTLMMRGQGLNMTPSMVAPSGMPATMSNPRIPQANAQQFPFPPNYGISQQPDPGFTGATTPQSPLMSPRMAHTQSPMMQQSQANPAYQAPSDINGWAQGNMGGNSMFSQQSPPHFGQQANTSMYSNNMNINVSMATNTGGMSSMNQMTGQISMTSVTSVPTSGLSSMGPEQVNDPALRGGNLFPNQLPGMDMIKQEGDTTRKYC
- assay-text: SRC2 coactivator transcriptional activity inhibitors, confirmation, cell-based, luminescence, HEK293, triplicate (AID 652008);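 note: 0% = DMSO-treated cells and 100% = Gossypol at 36 µM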
- condition-context: HEK293 GAL4-SRC2 luciferase reporter, at 8.9 µM, active compounds read high
outcome-measure: inhibition (%)
# unit: % | format: bare number

Ask | Need inhibition of Cc1cccc(C)c1NC(=O)CN1CCN(C/C=C/c2ccccc2)CC1 , thanks.
Reply | -3.36

Ask | Need inhibition of CCCCN1C=CC(=C2C(=O)c3ccccc3C2=O)C=C1 , thanks.
Reply | 73.1

Ask | Need inhibition of Cn1cc(C(=O)N/N=C/c2c(O)ccc3ccccc23)ccc1=O , thanks.
Reply | 26.8

Ask | Need inhibition of CCOc1ccc(-c2cc(CCCC(=O)NCc3ccco3)no2)cc1 , thanks.
Reply | 37.5

Ask | Need inhibition of O=C(c1ccccc1)C(CN1CCCCC1)c1ccccc1 (stereo not drawn) , thanks.
Reply | 63.6

Ask | Need inhibition of CCOC(=O)[C@]12CCC=C1N(CCC1=CCCCC1)C(=O)[C@H](CC(=O)N1CCC(c3ccccc3)CC1)C2 , thanks.
Reply | -24.7

---

- system-tested: Steroidogenic factor 1 (Homo sapiens)
- assay-text: SF1 (NR5A1) inverse agonists, counter-screen for LRH-1 inverse agonist project, cell-based, luminescence, high throughput (AID 651614);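 note: cells cotransfected with StAR promoter reporter and SF1 expression vector; 0% = vehicle on cells with receptor and 100% = vehicle on cells lacking receptor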
- condition-context: cell-based SF1 luciferase reporter, at 3.6 µM, active compounds read high
Would you mind labelling by inhibition? At or over 60% is satisfied, under is not satisfied.

Answered cases to consult:
Ask | In plain terms: is recorded inhibition at least 60% for O=C(COC(=O)c1ccc(Br)o1)Nc1ccc2c(c1)OCCO2 ?
Reply | satisfied

Ask | In plain terms: is recorded inhibition at least 60% for Cc1cc([N+](=O)[O-])ccc1NC(=O)CSc1nnc(C)n1C ?
Reply | not satisfied

Ask | In plain terms: is recorded inhibition at least 60% for Cc1cc2sc3ccc(C#CC4(O)CCCCC4)cc3c(=O)c2cc1C ?
Reply | satisfied

Ask | In plain terms: is recorded inhibition at least 60% for O=C(Nc1cccc(NC(=O)c2ccccc2Cl)c1)c1ccc([N+](=O)[O-])o1 ?
Reply | satisfied

Ask | In plain terms: is recorded inhibition at least 60% for O=C(NC(NC(=S)N1CCOCC1)C(Cl)(Cl)Cl)c1ccc(Cl)cc1 (configuration not stated) ?
Reply | not satisfied

Ask | In plain terms: is recorded inhibition at least 60% for CCOC(=O)c1c2c(n(Cc3ccccc3)c1C)C(=O)C(=O)c1ccccc1-2 ?
Reply | satisfied

Further cases:
Ask | In plain terms: is recorded inhibition at least 60% for Cc1cccc(-n2c3nc(=O)[nH]c(=O)c-3cc3cc([N+](=O)[O-])ccc32)c1 ?
Reply | not satisfied

Ask | In plain terms: is recorded inhibition at least 60% for O=C(Nc1ccccc1)c1oc2ccccc2c1NC(=O)C1CC1 ?
Reply | not satisfied

Ask | In plain terms: is recorded inhibition at least 60% for COc1ccc(S(=O)(=O)N2CCOCC2)cc1NC(=O)CCNC(=O)c1ccc(Br)cc1 ?
Reply | satisfied

Ask | In plain terms: is recorded inhibition at least 60% for Cc1nn(C)c(C)c1CN(Cc1nc(CCC(C)C)no1)C(C)C ?
Reply | not satisfied

Ask | In plain terms: is recorded inhibition at least 60% for CCCCCCn1c2c(c(=N)c3c1CCC3)CCC2 ?
Reply | satisfied

---

- assay-text: VP16 transactivation inhibitors, counter-screen for SRC1 inhibitor project, cell-based, luminescence, high throughput (AID 588824)
- condition-context: cell-based VP16 transactivation luciferase luminescence; at 3.6 µM
Active and inactive are the calls of the source. No stated cut-off is given here; in the data, active means inhibition above about 25%; inactive means the rest.
The reply should be one of these categories: active, inactive

Answered cases to consult:
Ask | Can you look up the reported call for Cc1ccc(S(=O)(=O)NCc2ccc3c(c2)OCO3)cc1C for me?
Reply | inactive

Ask | Can you look up the reported call for CCN(C(=O)c1cc(S(=O)(=O)N2CCCCC2)c[nH]1)c1ccc(OC)cc1 for me?
Reply | inactive

Ask | Can you look up the reported call for Cn1c(CC(=O)Nc2ccc(Cl)c(Cl)c2)nnc1SCC(=O)N1CCN(c2ccccc2)CC1 for me?
Reply | inactive

Ask | Can you look up the reported call for COc1ccc2cc3cc(C(=O)NCCc4ccc(OC)c(OC)c4)oc3nc2c1 for me?
Reply | active

Ask | Can you look up the reported call for CCCc1cc(C(=O)N(C)CC(=O)Nc2ccc(OCC)c(OCC)c2)sc1C for me?
Reply | inactive

Further cases:
Ask | Can you look up the reported call for Cc1ccnc2c1ccc1c(C)ccnc12 for me?
Reply | active

Ask | Can you look up the reported call for COc1ccc(-n2c(C)c(C(C)=O)c3cc(O)ccc32)cc1 for me?
Reply | active

Ask | Can you look up the reported call for CC1CCN(Cc2c(C(=O)N/N=C/c3ccccc3O)nnn2-c2nonc2N)CC1 for me?
Reply | active

Ask | Can you look up the reported call for CC1(Cc2ccc(F)cc2)C(=O)Nc2ccc(-c3cccnc3)cc21 (centres undefined) for me?
Reply | active

Ask | Can you look up the reported call for N=c1c2c(-c3ccccc3)c(-c3ccccc3)n(Cc3ccco3)c2ncn1CCCO for me?
Reply | active
